Overview of reported Ratio across a group of compounds:
- Test description: Ratio of drug uptake in putamen to cerebellum in anesthetized cynomolgus monkey after 235 mins postinjection
- Assay type: ADME, organism-based, Macaca fascicularis
- Measurement context: in vivo
Output spec: single numeric token, no unit.

Some compounds with recorded Ratio:
INSERT INTO assay_data (compound, reported) VALUES
  ('O=C(OCC[18F])C1C2CCC(CC1c1cccc(/C=C\I)c1)N2 (stereo not given)', 1.8),
  ('O=C(OCC[18F])C1C2CCC(CC1c1ccc(/C=C\I)cc1)N2 (stereo not given)', 3.8),
  ('O=C(OCCC[18F])C1C2CCC(CC1c1cccc(/C=C\Br)c1)N2 (stereo not given)', 1.7),
  ('O=C(OCC[18F])C1C2CCC(CC1c1cccc(/C=C\Br)c1)N2 (stereo not given)', 1.8);

// next entry
*Q* Give the measured Ratio for O=C(OCCC[18F])C1C2CCC(CC1c1cccc(/C=C\I)c1)N2 (stereo not given)
*A* 1.6
